- ASSAY SYSTEM: AsPC-1 HiBiT-KRASG12D (Homo sapiens, UniProt P01116, G12D)
- Construct: insert the HiBiT tag onto the N-terminus of one or more of the endogenous KRAS alleles; endogenous in cells; host or cells: AsPC-1 (ATCC CRL-1682), CRISPR-Cas9 knock-in clone, one tagged allele
- Sequence (P01116 1-188 isoform P01116-2 G12D): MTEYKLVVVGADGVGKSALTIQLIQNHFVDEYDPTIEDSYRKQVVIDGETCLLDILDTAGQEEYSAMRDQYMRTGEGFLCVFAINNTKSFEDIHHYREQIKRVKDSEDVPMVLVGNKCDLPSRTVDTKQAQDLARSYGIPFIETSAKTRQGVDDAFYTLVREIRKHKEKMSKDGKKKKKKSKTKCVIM
- ASSAY INFO: HiBiT degradation assay (G12D), AsPC-1 HiBiT-KRASG12D cells
- Format: cell-based
- CONDITION SUMMARY: AsPC-1 HiBiT-KRASG12D cells, 24 hours treatment, HiBiT luminescence
The compounds listed here are annotated with their DC50.

COMPOUND: CCc1cccc2cc(O)cc(-c3ncc4c(N5CC6CCC(C5)N6)nc(OCCN5CCC(CCOc6cc([C@@H](C(=O)N7C[C@H](O)C[C@H]7C(=O)N[C@@H](C)c7ccc(-c8scnc8C)cc7)C(C)C)on6)CC5)nc4c3F)c12 [Compound 248]
ASSAY SYSTEM: AsPC-1 HiBiT-KRASG12D (Homo sapiens, UniProt P01116, G12D)
DC50: > 3000 nM
//
COMPOUND: CCc1cccc2cc(O)cc(-c3ncc4c(N5CC6CCC(C5)N6)nc(OCCN5CC(CC6CCN(c7cc([C@@H](C(=O)N8C[C@H](O)C[C@H]8C(=O)N[C@@H](C)c8ccc(-c9scnc9C)cc8)C(C)C)on7)CC6)C5)nc4c3F)c12 [Compound 234]
ASSAY SYSTEM: AsPC-1 HiBiT-KRASG12D (Homo sapiens, UniProt P01116, G12D)
DC50: 1000 to 3000 nM
//
COMPOUND: CCc1cccc2cc(O)cc(-c3ncc4c(N5CC6CCC(C5)N6)nc(OC[C@]56CCCN5[C@H](COC(=O)N5CCN(c7cc([C@H](C(=O)N8C[C@H](O)C[C@H]8C(=O)N[C@@H](C)c8ccc(-c9scnc9C)cc8)C(C)C)on7)C[C@H]5C)CC6)nc4c3F)c12 [Compound 120]
ASSAY SYSTEM: AsPC-1 HiBiT-KRASG12D (Homo sapiens, UniProt P01116, G12D)
DC50: < 600 nM
//
COMPOUND: CCc1cccc2cc(O)cc(-c3ncc4c(N5CC6CCC(C5)N6)nc(OC[C@]56CCCN5[C@@H](COC(=O)NCc5cc([C@H](C(=O)N7C[C@H](O)C[C@H]7C(=O)N[C@@H](C)c7ccc(-c8scnc8C)cc7)C(C)C)on5)CC6)nc4c3F)c12 [Compound 102]
ASSAY SYSTEM: AsPC-1 HiBiT-KRASG12D (Homo sapiens, UniProt P01116, G12D)
DC50: < 600 nM
//
COMPOUND: CCc1cccc2cc(O)cc(-c3ncc4c(N5CCCCCC5)nc(OC[C@@H]5CC[C@@H](COC(=O)N6CCN(c7cc([C@H](C(=O)N8C[C@H](O)C[C@H]8C(=O)N[C@@H](C)c8ccc(-c9scnc9C)cc8)C(C)C)on7)[C@H](C)C6)N5C)nc4c3F)c12 [Compound 230]
ASSAY SYSTEM: AsPC-1 HiBiT-KRASG12D (Homo sapiens, UniProt P01116, G12D)
DC50: < 600 nM
//
COMPOUND: C#Cc1c(F)ccc2cccc(-c3ncc4c(N5CC6CCC(C5)N6)nc(OC[C@]56CCCN5[C@H](COc5cc([C@H](C(=O)N7C[C@H](O)C[C@H]7C(=O)N[C@@H](C)c7ccc(-c8scnc8C)cc7)C(C)C)on5)CC6)nc4c3F)c12 [Compound 316]
ASSAY SYSTEM: AsPC-1 HiBiT-KRASG12D (Homo sapiens, UniProt P01116, G12D)
DC50: < 600 nM

// data source = patent US20250206732A1
